tgt: Human LRP-8 (isoform 3) expressed on cells (human, UniProt Q14114 33-963)
Sequence (Q14114 other isoform, or with tags, fused parts or gaps limits assumed): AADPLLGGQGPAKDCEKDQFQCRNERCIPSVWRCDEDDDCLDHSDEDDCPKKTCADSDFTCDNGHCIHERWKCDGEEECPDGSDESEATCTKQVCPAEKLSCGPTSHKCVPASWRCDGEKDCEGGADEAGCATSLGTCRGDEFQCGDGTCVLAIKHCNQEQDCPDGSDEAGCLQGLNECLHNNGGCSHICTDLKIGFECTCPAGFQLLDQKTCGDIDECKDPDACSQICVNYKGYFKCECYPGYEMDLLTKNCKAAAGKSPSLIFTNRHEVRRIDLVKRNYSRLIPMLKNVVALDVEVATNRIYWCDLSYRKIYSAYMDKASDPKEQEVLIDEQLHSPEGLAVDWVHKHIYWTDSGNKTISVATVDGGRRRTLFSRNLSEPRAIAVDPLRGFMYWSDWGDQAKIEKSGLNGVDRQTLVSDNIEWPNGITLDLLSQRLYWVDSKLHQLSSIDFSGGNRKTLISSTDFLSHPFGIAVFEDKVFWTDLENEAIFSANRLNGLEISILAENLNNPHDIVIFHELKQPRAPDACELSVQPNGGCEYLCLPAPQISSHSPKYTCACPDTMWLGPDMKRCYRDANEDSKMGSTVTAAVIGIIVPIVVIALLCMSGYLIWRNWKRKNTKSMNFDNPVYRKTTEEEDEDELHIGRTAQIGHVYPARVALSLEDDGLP
assayNotes: cell-based or functional assay
reportedEndpoint: Transcytosis, fold over IgG control (fold)
Numbers only, in fold.

Recorded result, anti-LRP-8 ML199-11H1.5B2 murine antibody (muFc) (antibody, V domains shown, Mouse Fc form (muFc); also called ML199-11H1-5B2 muFc; anti-LRP-8,11H1.5B2) VH: EVQLVESGGDLVKPGGSLKLSCAASRFTFSNYGMSWVRQTPDKRLEWVATISSGGRYTYYPDSVKGRFTISRDNAKNTLYLQMSSLRSEDTAMYYCARDYLYAMDYWGQGTSVTVSS VL: DVVMTQTPLSLPVSLGDQASISCRSSQSLVYSNGNTYLHWYLQKPGQSPKVLMYKVSNRFSGVSDRFSGSGSGTDFTLKISRVEAEDLGVYFCSQSTHVPLTFGAGTKLELK , Transcytosis, fold over IgG control: 2
